# target.desc: STK10 (human) (UniProt O94804)
# Sequence (O94804 whole entry, looked up): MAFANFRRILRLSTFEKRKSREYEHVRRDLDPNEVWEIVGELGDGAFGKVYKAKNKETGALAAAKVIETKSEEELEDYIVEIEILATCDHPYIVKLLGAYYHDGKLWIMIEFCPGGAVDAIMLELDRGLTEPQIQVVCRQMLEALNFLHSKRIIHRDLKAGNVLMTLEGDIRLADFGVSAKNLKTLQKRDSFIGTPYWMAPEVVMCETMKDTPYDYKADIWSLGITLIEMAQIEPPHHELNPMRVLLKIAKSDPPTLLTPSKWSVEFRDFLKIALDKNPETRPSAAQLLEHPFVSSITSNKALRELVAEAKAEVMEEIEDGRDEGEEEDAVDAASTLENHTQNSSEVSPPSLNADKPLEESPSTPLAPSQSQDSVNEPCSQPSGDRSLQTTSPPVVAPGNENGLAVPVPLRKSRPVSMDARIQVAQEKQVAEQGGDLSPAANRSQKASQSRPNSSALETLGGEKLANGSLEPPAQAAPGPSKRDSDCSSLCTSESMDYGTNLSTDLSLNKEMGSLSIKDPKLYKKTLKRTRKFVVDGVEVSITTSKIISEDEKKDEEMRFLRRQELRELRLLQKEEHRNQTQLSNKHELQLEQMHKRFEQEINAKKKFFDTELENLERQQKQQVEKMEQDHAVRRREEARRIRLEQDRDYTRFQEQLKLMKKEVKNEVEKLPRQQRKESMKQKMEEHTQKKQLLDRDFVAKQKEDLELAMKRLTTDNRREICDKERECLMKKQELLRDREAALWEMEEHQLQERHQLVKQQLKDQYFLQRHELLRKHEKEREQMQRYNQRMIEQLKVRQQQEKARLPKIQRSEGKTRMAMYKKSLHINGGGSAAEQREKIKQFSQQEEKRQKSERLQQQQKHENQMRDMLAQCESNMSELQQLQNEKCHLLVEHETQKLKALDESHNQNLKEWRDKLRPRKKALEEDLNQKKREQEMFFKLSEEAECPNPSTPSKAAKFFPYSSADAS
# test.protocol: KINOMEscan competition binding
# assay.conditions: compound 10.0 µM
kinase still bound, per cent of control under 70% gets Yes, anything at or over 70% gets No.

[Q] Say whether its kinase still bound, per cent of control is strictly beneath 70%. Entry: `CCc1nc(-c2cccc(C)c2)c(-c2ccnc(NC(=O)c3ccccc3)c2)s1`
[A] Yes

[Q] Say whether its kinase still bound, per cent of control is strictly beneath 70%. Entry: `N#C/C(=C1/Nc2ccccc2S1)c1ccnc(NCCc2cccnc2)n1`
[A] No

[Q] Say whether its kinase still bound, per cent of control is strictly beneath 70%. Entry: `COc1cc2c(Nc3ccc(NC(=O)c4ccccc4)cc3)ncnc2cc1OCCCN1CCOCC1`
[A] Yes

These data points were gathered from the kinase profiling compilation of Christmann-Franck et al. (2016).
